Target: T1, human TSH receptor (full length), coated on tubes (human, UniProt P16473 22-764)
T1 construct: TSHR coated tubes as described in WO2004/050708A2; The receptor is full length and held on plastic tubes through a mouse MAb to the TSHR; also called thyroid stimulating hormone receptor
Assay: inhibition of 125I-K1-70 Fab (competitor) binding to TSHR coated tubes; 30 µg/mL in HBD serum pool
observation.type: Inhibition of binding (%)
Supply the numeric figure in %, leaving out any unit text.

Below: 3 binders and their reported Inhibition of binding (%).
INSERT INTO assay_data (binder, val) VALUES
  ('K1-70 Fab (Fab, V domains shown) VH: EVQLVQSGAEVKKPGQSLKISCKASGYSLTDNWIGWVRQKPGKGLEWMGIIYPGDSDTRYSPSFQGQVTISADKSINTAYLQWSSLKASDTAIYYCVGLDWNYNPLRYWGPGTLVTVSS VL: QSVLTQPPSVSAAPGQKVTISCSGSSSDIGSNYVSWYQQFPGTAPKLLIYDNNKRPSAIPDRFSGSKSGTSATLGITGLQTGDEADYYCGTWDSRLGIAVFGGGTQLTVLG', 95.7),
  ('K1-70 IgG (antibody, V domains shown, Human IgG1 lambda purified from hetero-hybridoma supernatant; also called human monoclonal autoantibody to the TSHR with TSH antagonist activity) VH: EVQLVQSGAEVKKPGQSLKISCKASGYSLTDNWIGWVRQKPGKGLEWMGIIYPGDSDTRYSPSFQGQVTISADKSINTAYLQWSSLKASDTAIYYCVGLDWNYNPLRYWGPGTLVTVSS VL: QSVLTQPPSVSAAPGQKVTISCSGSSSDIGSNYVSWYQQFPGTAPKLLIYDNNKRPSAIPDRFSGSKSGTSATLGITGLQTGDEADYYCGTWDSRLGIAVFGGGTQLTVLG', 97.4),
  ('K1-18 Fab (Fab, V domains shown) VH: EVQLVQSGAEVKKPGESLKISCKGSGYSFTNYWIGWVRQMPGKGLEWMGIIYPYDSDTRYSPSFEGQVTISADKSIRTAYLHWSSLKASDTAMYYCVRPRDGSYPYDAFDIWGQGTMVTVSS VL: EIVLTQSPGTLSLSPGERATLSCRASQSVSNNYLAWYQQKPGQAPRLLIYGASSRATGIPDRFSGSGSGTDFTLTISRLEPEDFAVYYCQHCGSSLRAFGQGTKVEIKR', 85.4);

Inhibition of binding (%) in this record for K1-18 IgG (antibody, V domains shown, Human IgG1 kappa purified from hetero-hybridoma supernatant; also called human monoclonal autoantibody to the TSHR with TSH agonist activity) VH: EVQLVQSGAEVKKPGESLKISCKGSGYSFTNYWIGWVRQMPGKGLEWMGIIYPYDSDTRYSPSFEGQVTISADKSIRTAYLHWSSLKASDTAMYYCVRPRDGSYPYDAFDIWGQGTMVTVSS VL: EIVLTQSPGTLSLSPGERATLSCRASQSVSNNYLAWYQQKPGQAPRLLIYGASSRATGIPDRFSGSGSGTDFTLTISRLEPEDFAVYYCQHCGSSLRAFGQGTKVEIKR : 95.6
